# assay: Body weight ratio (FBW/IBW) in the MCF-7 subrenal capsule assay
# Assay type: in vivo, mice
# condition-set: Table 3; 25 μg/inj. s.c., QDO5
Peptide text beside a SMILES is read from it.
quantity: FBW/IBW = Final Body Weight/Initial Body Weight
Please give the numeric answer without any surrounding text.

What value of FBW/IBW = Final Body Weight/Initial Body Weight has been reported for the following compound? CC(=O)N[C@H](Cc1ccc2ccccc2c1)C(=O)N[C@H](Cc1ccc(Cl)cc1)C(=O)N[C@H](Cc1c[nH]c2ccccc12)C(=O)N[C@@H](CO)C(=O)N[C@@H](Cc1ccc(O)cc1)C(=O)N[C@H](CCCNC(=N)N)C(=O)N[C@@H](Cc1ccccc1)C(=O)N[C@@H](CCCNC(=N)N)C(=O)N1CCC[C@H]1C(=O)N[C@H](C)C(N)=O [BIM-21023] (HELM PEPTIDE1{[ac].[O=C([C@@H](Cc1ccc2ccccc2c1)N[*:1])[*:2]].[O=C([C@@H](Cc1ccc(Cl)cc1)N[*:1])[*:2]].[dW].S.Y.[dR].F.R.P.[dA].[am]}$$$$V2.0)
1.01

###

# assay: Body weight ratio (FBW/IBW) in the MCF-7 subrenal capsule assay
# Assay type: in vivo, mice
# condition-set: Table 3; 25 μg/inj. s.c., QDO5
Numbered stars: 1 amine (or outer) side, 2 acyl side, 3 side chain; on linkers, the order of the positions; unused ones are H or OH. Square brackets hold non-standard residues; d marks the D form. Peptide text beside a SMILES is read from it. X1 = O=C([C@@H](CCCCNC1CCCC1)N[*:1])[*:2]; X2 = O=C([C@H](CCCCNC1CCCC1)N[*:1])[*:2]; d2Nal = N[C@H](Cc1ccc2ccccc2c1)C(=O)O
quantity: FBW/IBW = Final Body Weight/Initial Body Weight
Please give the numeric answer without any surrounding text.

The cases that follow already have their FBW/IBW = Final Body Weight/Initial Body Weight on record.
molecule	test-value
CC(=O)N[C@H](Cc1ccc2ccccc2c1)C(=O)N[C@H](Cc1ccccc1)C(=O)N[C@H](Cc1ccccc1)C(=O)N[C@@H](CO)C(=O)N[C@@H](Cc1ccccc1)C(=O)N[C@H](CCCNC(=N)N)C(=O)N[C@@H](CC(C)C)C(=O)N[C@@H](CCCNC(=N)N)C(=O)N1CCC[C@H]1C(=O)N[C@H](C)C(N)=O [BIM-21024] (HELM PEPTIDE1{[ac].[O=C([C@@H](Cc1ccc2ccccc2c1)N[*:1])[*:2]].[dF].[dF].S.F.[dR].L.R.P.[dA].[am]}$$$$V2.0)	1.00
CC(=O)N[C@H](Cc1ccc2ccccc2c1)C(=O)N[C@H](Cc1ccccc1)C(=O)N[C@H](Cc1ccccc1)C(=O)N[C@@H](CO)C(=O)N[C@@H](Cc1ccc(O)cc1)C(=O)N[C@H](CCCCNC1CCCC1)C(=O)N[C@@H](Cc1ccccc1)C(=O)N[C@@H](CCCCNC1CCCC1)C(=O)N1CCC[C@H]1C(=O)N[C@H](C)C(N)=O [BIM-21026] (Ac-[d2Nal][dF][dF]SY[X1]F[X2]P[dA]-NH2)	1.01

Now look at this entry.
What value of FBW/IBW = Final Body Weight/Initial Body Weight has been reported for the following molecule? CC(=O)N[C@H](Cc1ccc2ccccc2c1)C(=O)N[C@H](Cc1ccccc1)C(=O)N[C@H](Cc1ccccc1)C(=O)N[C@@H](CO)C(=O)N[C@@H](Cc1ccc(O)cc1)C(=O)N[C@H](CCCCNCc1ccccc1)C(=O)N[C@@H](Cc1ccccc1)C(=O)N[C@@H](CCCNC(=N)N)C(=O)N1CCC[C@H]1C(=O)N[C@H](C)C(N)=O [BIM-21025] (HELM PEPTIDE1{[ac].[O=C([C@@H](Cc1ccc2ccccc2c1)N[*:1])[*:2]].[dF].[dF].S.Y.[O=C([C@@H](CCCCNCc1ccccc1)N[*:1])[*:2]].F.R.P.[dA].[am]}$$$$V2.0)
0.97

All values here come from patent US5003011A.
